# Tested on: PC9_DC (EGFR_ex19del/C797S) cells
# ASSAY INFO: Cell viability assay, PC9_DC
# Format: cell-based
# CONDITION DESCRIPTION: read-out: Cell viability IC50; PC9_DC cells; 72 hours post-treatment
pIC50: −log10 of the molar value.
PROPERTY: pIC50

C=CC(=O)Nc1cc(Nc2nccc(-c3cn(C)c4ccccc34)n2)c(OC)cc1N(C)CCN(C)C [Osimertinib, osimertinib, reference compound] | < 6.00
